Assay comment: BSK_3C_VCAM1: BioMAP Diversity Plus: 3C Assay for Vascular cell adhesion molecule 1 (VCAM1) Biomarker Activity (AID 2282999)
Settings: BioMAP 3C HUVEC, VCAM1 ELISA, cytokine-stimulated; actives raise or lower the signal
Activity calls are given as the source filed them. The calls were made as follows: active = hit-call score of the fitted dose curve at least 0.9, where 1 is the maximum; inactive = score below 0.9.
The reply should name one outcome from active, inactive

See these solved cases before continuing.
Prompt: Any idea what this test logged for `CC(C)c1ccc(C(=O)N=C(N)N)cc1S(C)(=O)=O` ?
Completion: inactive

Prompt: Any idea what this test logged for `CCc1c(C(=O)NN2CCCCC2)nn(-c2ccc(Cl)cc2Cl)c1-c1ccc(Br)cc1` ?
Completion: active

Prompt: Any idea what this test logged for `Cc1ccc(N(C)C)cc1` ?
Completion: inactive

Prompt: Any idea what this test logged for `Cc1ccccc1Cl` ?
Completion: inactive

Prompt: Any idea what this test logged for `CC(=O)OCCOCCOCCOC(C)=O` ?
Completion: inactive

Prompt: Any idea what this test logged for `Cc1nc(C)nc(N2C[C@@H](C)N(c3ccnc([C@@H](C)O)n3)[C@@H](C)C2)n1` ?
Completion: inactive

Prompt: Any idea what this test logged for `Clc1cc(Cl)c(Cl)cc1Cl` ?
Completion: inactive

Prompt: Any idea what this test logged for `Cc1c(C(=O)O)c(O)cc2c1C(=O)c1c(O)c([C@@H]3O[C@H](CO)[C@@H](O)[C@H](O)[C@H]3O)c(O)c(O)c1C2=O` ?
Completion: inactive

Next:
Prompt: Any idea what this test logged for `CCCCCCC(=O)OCC` ?
Completion: inactive

Prompt: Any idea what this test logged for `c1cc(-c2ccncc2)ccn1` ?
Completion: inactive

----------
System: guinea pig Histamine Receptor (H2), gene 100729734
Assay comment: NVS_GPCR_gH2: NovaScreen (NVS) G Protein-Coupled Receptor Assay for guinea pig Histamine Receptor (H2) (AID 2283342)
Inconclusive results are not listed. Calls of active or inactive are those of the source. Rule for the calls: active = hit-call score of the fitted dose curve at least 0.9, where 1 is the maximum; inconclusive = response in the unintended direction; inactive = score below 0.9.
The reply should name one outcome from active, inactive

See these solved cases before continuing.
Prompt: Any idea what this test logged for `NC(=O)Cn1c(=O)cc(CCN2CCN(c3nccc4sccc34)CC2)c2ccc(F)cc21` ?
Completion: active

Prompt: Any idea what this test logged for `CCc1c(C(=O)NN2CCCCC2)nn(-c2ccc(Cl)cc2Cl)c1-c1ccc(Br)cc1` ?
Completion: inactive

Prompt: Any idea what this test logged for `CN1CCN(Cc2cc(-c3ccc4[nH]c(=O)oc4c3)co2)[C@@H](c2ccc(F)cc2)C1` ?
Completion: active

Next:
Prompt: Any idea what this test logged for Cc1nc(-c2ccc3c(c2)CCN(CCC2CCC(NC(=O)/C=C/c4ccc(F)cc4)CC2)CC3)no1 (centres undefined) ?
Completion: active

----------
Target: Nucleoli Translocation, AR (gene 367)
Assay comment: UPITT_HCI_U2OS_AR_TIF2_Nucleoli_Antagonist: University of Pittsburgh U2OS Androgen Receptor-Transcriptional Intermediary Factor 2 (AR-TIF2) Antagonism High Content Imaging Assay for Nucleoli Translocation (AID 2283997)
Source text: UPITT_AR_TIF2_PPIB is a cell-based, high-content imaging assay that uses U2OS, a human osteosarcoma cell line, expressing a human androgen receptor fused to red fluorescent protein and the coactivator TIF2 fused to green fluorescent protein. UPITT_HCI_U2OS_AR_TIF2_Nucleoli_Antagonist is one of four assay components measured from the UPITT_AR_TIF2_PPIB assay. […]
Records with an inconclusive call do not appear. Calls of active or inactive are those of the source. How the source made its calls: active means hit-call score of the fitted dose curve at least 0.9, where 1 is the maximum; inconclusive means response in the unintended direction; inactive means score below 0.9.
The reply should name one outcome from active, inactive

Prompt: Any idea what this test logged for Cc1nc(-c2ccc3c(c2)CCN(CCC2CCC(NC(=O)/C=C/c4ccc(F)cc4)CC2)CC3)no1 (stereo unspecified) ?
Completion: inactive

Next:
Prompt: Any idea what this test logged for `Cc1ccccc1Cl` ?
Completion: inactive

Prompt: Any idea what this test logged for `Cc1ccc(C)c(C)c1` ?
Completion: inactive

Prompt: Any idea what this test logged for `CN[C@H]1CC[C@@H](c2ccc(Cl)c(Cl)c2)c2ccc(S(N)(=O)=O)cc21` ?
Completion: active

Prompt: Any idea what this test logged for `COCCOCCOC` ?
Completion: inactive

Prompt: Any idea what this test logged for `CNC(=O)[C@H]1O[C@@H](n2cnc3c(NCc4cc(Cl)ccc4OCc4cc(C)no4)ncnc32)[C@H](O)[C@@H]1N` ?
Completion: inactive

----------
Read-out: Bcl-2 (BAX) gene, BAX (gene 581)
Assay comment: LTEA_HepaRG_BAX: Life Technologies and Expression Analysis (LTEA) Assay for Bcl-2 (BAX) gene using HepaRG (AID 2283470)
Settings: mRNA level, 48 h; actives raise or lower the signal
Calls of active or inactive are those of the source. How the source made its calls: active means hit-call score of the fitted dose curve at least 0.9, where 1 is the maximum; inactive means score below 0.9.
The reply should name one outcome from active, inactive

Prompt: Any idea what this test logged for `CN[C@H]1CC[C@@H](c2ccc(Cl)c(Cl)c2)c2ccc(S(N)(=O)=O)cc21` ?
Completion: active

Prompt: Any idea what this test logged for `CCOC(=O)C(C)(C)Oc1ccc(Cl)cc1` ?
Completion: inactive

Prompt: Any idea what this test logged for `CNC(=O)[C@H]1O[C@@H](n2cnc3c(NCc4cc(Cl)ccc4OCc4cc(C)no4)ncnc32)[C@H](O)[C@@H]1N` ?
Completion: inactive

Next:
Prompt: Any idea what this test logged for `CC(C)(C)c1cc(O)c(C(C)(C)C)cc1O` ?
Completion: inactive

Prompt: Any idea what this test logged for `Oc1ccc2c(c1)OC[C@@H](N1CCC(O)(c3ccc(F)cc3)CC1)[C@H]2O` ?
Completion: inactive

Prompt: Any idea what this test logged for `COC(=O)c1ccc(O)cc1` ?
Completion: inactive

Prompt: Any idea what this test logged for `CNCc1cc(F)ccc1Oc1ccc(Cl)c(Cl)c1` ?
Completion: inactive

Prompt: Any idea what this test logged for `CCCCCCCCCCCCCCCCCC(=O)O` ?
Completion: inactive

Prompt: Any idea what this test logged for `COc1ccc(C)cc1N` ?
Completion: inactive

----------
Read-out: ABC Transporter (ABCB11), ABCB11 (gene 8647)
Assay comment: LTEA_HepaRG_ABCB11: Life Technologies and Expression Analysis (LTEA) Assay for ABC Transporter (ABCB11) using HepaRG (AID 2283463)
Settings: mRNA level, 48 h; actives raise or lower the signal
Protocol: LTEA_HepaRG is a cell based, multiplexed-readout assay that uses HepaRG, a human liver cell line, with measurements taken at 48 hours after chemical dosing on a 96-well plate.LTEA_HepaRG_ABCB11 is one of 102 assay component(s) measured in the LTEA HepaRG cell culture assay. It is a marker of Steatosis/NR mediated transport.Data from the assay component LTEA_HepaRG_ABCB11 was analyzed into 1 endpoint. […]
Calls of active or inactive are those of the source. How the source made its calls: active means hit-call score of the fitted dose curve at least 0.9, where 1 is the maximum; inactive means score below 0.9.
Value type: AC50

Examples from the recorded data:
Prompt: Consider the molecule `COc1ccc(C)cc1N` . State its measured AC50.
Completion: inactive

Prompt: Consider the molecule `Cc1oc(-c2ccccc2)nc1CCOc1cccc2c1ccn2CCC(=O)O` . State its measured AC50.
Completion: 93.7 µM (active)

Prompt: Consider the molecule `CCc1c(C(=O)NN2CCCCC2)nn(-c2ccc(Cl)cc2Cl)c1-c1ccc(Br)cc1` . State its measured AC50.
Completion: 39 µM (active)

Prompt: Consider the molecule `Cc1ccc(C)c(C)c1` . State its measured AC50.
Completion: inactive

Prompt: Consider the molecule `CNCc1cc(F)ccc1Oc1ccc(Cl)c(Cl)c1` . State its measured AC50.
Completion: inactive

Prompt: Consider the molecule `Cc1cc(=O)[nH]c(=S)[nH]1` . State its measured AC50.
Completion: inactive

Prompt: Consider the molecule `CCCCc1ccc2c(n1)[C@@H](c1ccc(OC)cc1C[C@H](C)C(=O)O)[C@H](C(=O)O)[C@H]2c1ccc2c(c1)OCO2` . State its measured AC50.
Completion: inactive

Prompt: Consider the molecule `COC(=O)c1ccc(O)cc1` . State its measured AC50.
Completion: inactive

Next:
Prompt: Consider the molecule `Cc1c(C(=O)O)c(O)cc2c1C(=O)c1c(O)c([C@@H]3O[C@H](CO)[C@@H](O)[C@H](O)[C@H]3O)c(O)c(O)c1C2=O` . State its measured AC50.
Completion: inactive

Prompt: Consider the molecule `CCCc1cc(=O)[nH]c(=S)[nH]1` . State its measured AC50.
Completion: inactive

Prompt: Consider the molecule `NS(=O)(=O)c1cc2c(cc1Cl)NCNS2(=O)=O` . State its measured AC50.
Completion: inactive

----------
Assay comment: APR_HepG2_NuclearSize_24hr: Apredica 24-hour HepG2 Assay for Nuclear Size (AID 2282907)
Settings: high-content imaging, actives raise or lower the signal
Active and inactive are the calls of the source. Rule for the calls: active = hit-call score of the fitted dose curve at least 0.9, where 1 is the maximum; inactive = score below 0.9.
Value type: AC50

Prompt: Consider the molecule `CCCCCCC(=O)OCC` . State its measured AC50.
Completion: inactive

Prompt: Consider the molecule `Cc1cccc([N+](=O)[O-])c1C` . State its measured AC50.
Completion: inactive

Prompt: Consider the molecule `NS(=O)(=O)c1cc2c(cc1Cl)NCNS2(=O)=O` . State its measured AC50.
Completion: inactive

Prompt: Consider the molecule `Nc1ccccc1N` . State its measured AC50.
Completion: inactive

Prompt: Consider the molecule Cc1nc(-c2ccc3c(c2)CCN(CCC2CCC(NC(=O)/C=C/c4ccc(F)cc4)CC2)CC3)no1 (stereo not drawn) . State its measured AC50.
Completion: inactive

Prompt: Consider the molecule `CNCc1cc(F)ccc1Oc1ccc(Cl)c(Cl)c1` . State its measured AC50.
Completion: 54.7 µM (active)

Prompt: Consider the molecule `CCNc1cccc(C)c1` . State its measured AC50.
Completion: inactive

Prompt: Consider the molecule `CN1CCN(Cc2cc(-c3ccc4[nH]c(=O)oc4c3)co2)[C@@H](c2ccc(F)cc2)C1` . State its measured AC50.
Completion: inactive

Next:
Prompt: Consider the molecule `Cc1ccc(N(C)C)cc1` . State its measured AC50.
Completion: inactive

Prompt: Consider the molecule `Cc1cc(NC(=O)C(=O)O)cc(C)c1Oc1ccc(O)c2c1CCC2` . State its measured AC50.
Completion: inactive

Prompt: Consider the molecule `C[Si]1(C)O[Si](C)(C)O[Si](C)(C)O[Si](C)(C)O1` . State its measured AC50.
Completion: inactive

Prompt: Consider the molecule `CCCCCCCCCCCC(=O)OC` . State its measured AC50.
Completion: inactive

Prompt: Consider the molecule `Cc1cccc(Nc2cc(Cl)nc(SCC(=O)O)n2)c1C` . State its measured AC50.
Completion: inactive
